Assay: Quantitative High-Throughput drug screen in 47 multiple myeloma cell lines against the NCATS MIPE library collection: Karpas620_DSMZ cell viability assay (AID 1918959); further: nearly all actives have a fitted effect of over 30% in size
Conditions: Karpas620 myeloma viability, CellTiter-Glo ATP luminescence, 48 h; series mostly up to 45.8 µM
Inconclusive results are not listed. The source made the active and inactive calls. The call rests on the fitted dose curve; in most records, active means well fitted cell-killing curve with a large enough effect; inconclusive means small, poorly fitted or top-dose-only effect, or effect the other way; inactive means no such curve, though single readings can be large or run the other way.
Outcome codes: active, inactive

molecule=CO[C@H]1/C=C\O[C@@]2(C)Oc3c(C)c(O)c4c(O)c(c(C=NN5CCN(C6CCCC6)CC5)c(O)c4c3C2=O)NC(=O)C(C)=CC=C[C@H](C)[C@H](O)[C@@H](C)[C@@H](O)[C@@H](C)[C@H](OC(C)=O)[C@H]1C class=active
molecule=CCCCn1c(=O)n(Cc2ccccc2F)c(=O)c2[nH]c(Cc3ccc(NC(C)=O)cc3)nc21 class=inactive
molecule=O=C(O)Cc1cccc(OCCCN(Cc2cccc(C(F)(F)F)c2Cl)CC(c2ccccc2)c2ccccc2)c1 class=inactive
molecule="Nc1ncnc2c1c(-c1cccc(OCc3ccccc3)c1)cn2C1CC(CN2CCC2)C1 (centres undefined)" class=active

* * *

Assay: Quantitative High-Throughput drug screen in 47 multiple myeloma cell lines against the NCATS MIPE library collection: KMS11_JCRBsus cell viability assay (AID 1919873); further: nearly all actives have a fitted effect of over 50% in size
Details: KMS11 myeloma viability, CellTiter-Glo ATP luminescence, 48 h; series mostly up to 45.8 µM
Results filed as inconclusive are left out. Calls of active or inactive are those of the source. Calls follow the shape of the dose curve; as a rule, active = well fitted cell-killing curve with a large enough effect; inconclusive = small, poorly fitted or top-dose-only effect, or effect the other way; inactive = no such curve, though single readings can be large or run the other way.
Outcome codes: class 1 (active), class 0 (inactive)

compound=FC(F)(F)c1ccc(C=Cc2nc(COc3ccc(CCCCn4ccnn4)cc3)co2)cc1 class="class 1"
compound=Cc1ccc(S(=O)(=O)OCC(=O)Nc2ccc(C(=O)O)c(O)c2)cc1 class="class 0"
compound=N#CC1(c2cccc(C(=O)Nc3cc(Oc4ccc5nc(NC(=O)C6CC6)sc5n4)ccc3F)c2Cl)CC1 class="class 1"
compound="CN1CC(=O)N2C(Cc3c([nH]c4ccccc34)[C@H]2c2ccc3c(c2)OCO3)C1=O (stereo not given in full)" class="class 0"
compound=CCCCCCCCCCCCCCCC(=O)O[C@H]1[C@@H](O)[C@@H](O)[C@@H]([C@H](NC(=O)[C@@H]2C[C@@H](CCC)CN2C)[C@H](C)Cl)O[C@@H]1SC class="class 0"

* * *

Assay: Quantitative High-Throughput drug screen in 47 multiple myeloma cell lines against the NCATS MIPE library collection: SKMM1_PLB cell viability assay (AID 1919863); further: nearly all actives have a fitted effect of over 35% in size
Details: SKMM1 myeloma viability, CellTiter-Glo ATP, 48 h; hits give low values
Inconclusive results are not listed. Calls of active or inactive are those of the source. The call rests on the fitted dose curve; in most records, active means well fitted cell-killing curve with a large enough effect; inconclusive means small, poorly fitted or top-dose-only effect, or effect the other way; inactive means no such curve, though single readings can be large or run the other way.
Let's look at some compounds and their measured viability.
measurement_name: viability

compound=CC(C)C[C@@H](N)[C@H](O)C(=O)N[C@H](C(=O)N[C@H](C(=O)N[C@@H](CC(=O)O)C(=O)O)C(C)C)C(C)C experimental_result="122% (inactive)"
compound=CC(C)c1onc(-c2c(Cl)cccc2Cl)c1COc1ccc(C=Cc2cccc(C(=O)O)c2)c(Cl)c1 experimental_result="113% (inactive)"
compound=CCCCC(F)(F)[C@@]1(O)CC[C@H]2[C@H](CC(=O)[C@@H]2CCCCCCC(=O)O)O1 experimental_result="97.7% (inactive)"
compound=CON(C)C(=O)N1N=C(c2cc(F)ccc2F)S[C@]1(CCCN)c1ccccc1 experimental_result="61.2% (inactive)"
compound=Cc1cn([C@@H]2C[C@@H](O)[C@H](CO)O2)c(=O)[nH]c1=O experimental_result="137% (inactive)"
compound=C[C@@H]1C[C@H]2[C@@H]3CCC4=CC(=O)C=C[C@]4(C)[C@@]3(F)[C@@H](O)C[C@]2(C)[C@@]1(O)C(=O)CO experimental_result="118% (inactive)"
compound="O=C(O)C1=NC(C(=O)O)CC(C=CN2c3cc(O)c(OC4OC(CO)C(O)C(O)C4O)cc3CC2C(=O)O)=C1 (centres undefined)" experimental_result="117% (inactive)"
compound=CN(C)N=Nc1nc[nH]c1C(N)=O experimental_result="140% (inactive)"
compound=CCC(=O)NCC[C@@H]1CCc2ccc3c(c21)CCO3 experimental_result="137% (inactive)"

* * *

System: MKL-2
Experiment: qHTS assay to identify novel small-molecules to repurpose for Merkel cell carcinoma treatment (AID 1296009); further: nearly all actives have a fitted effect of over 60% in size
Settings: MCC and control cell lines, CellTiter-Glo viability, 72 h; series mostly up to 46 µM
Records with an inconclusive call do not appear. Activity calls are given as the source filed them. The call rests on the fitted dose curve; in most records, active means well fitted inhibition curve with a large enough effect; inconclusive means small, poorly fitted or top-dose-only effect; inactive means flat fitted curve, though single readings scatter.
Outcome codes: 1 (yes) = active, 0 (no) = inactive

molecule=C[C@@H]1CC=CC=CC=CC=C[C@@H](O[C@@H]2O[C@H](C)[C@@H](O)[C@H](N)[C@H]2O)C[C@@H]2O[C@](O)(C[C@@H](O)C[C@@H]3O[C@@H]3C=CC(=O)O1)C[C@H](O)[C@@H]2C(=O)O class="0 (no)"
molecule=O=C(Nc1cccc(Cl)c1)Nc1ncc(CCNc2ncnc3ccsc23)s1 class="0 (no)"
molecule=CC(C)c1onc(-c2c(Cl)cccc2Cl)c1COc1ccc(C=Cc2cccc(C(=O)O)c2)c(Cl)c1 class="0 (no)"
molecule=CC[C@H](C)n1cc(C)c2c(C(=O)NCc3c(C)cc(C)[nH]c3=O)cc(-c3ccc(N4CCNCC4)nc3)cc21 class="0 (no)"
molecule=COc1ccc(-c2cc3nccn3c(Nc3ncccc3C(N)=O)n2)cc1OC class="0 (no)"
molecule="NCC1CCC(C(=O)O)CC1 (centres undefined)" class="0 (no)"
molecule=OC[C@H]1O[C@@H](OCCc2ccc(O)cc2)[C@H](O)[C@@H](O)[C@H]1O class="0 (no)"
molecule=O=C(Nc1cccc(C(F)(F)F)c1)Nc1cc(S(=O)(=O)NC2CC2)ccc1-c1ccsc1 class="0 (no)"
molecule=CC(C)Oc1cc(Nc2nc(N[C@@H](C)c3ccc(F)cn3)ncc2Cl)[nH]n1 class="0 (no)"
molecule=CC(C)[C@H](O)C(=O)N[C@@H](C)C(=O)N[C@@H]1C(=O)N(C)CCc2ccccc21 class="0 (no)"
molecule="CCC(c1ccc(O)cc1)C(CC)c1ccc(O)cc1 (centres undefined)" class="0 (no)"
molecule=CC1=C[C@@H]2[C@@H]([C@@H](O)C[C@@]3(C)[C@H]2C[C@@H](C)[C@]3(O)C(=O)CO)[C@@]2(C)Cc3cnn(-c4ccccc4)c3C=C12 class="0 (no)"
molecule="CN1[C@H]2CC[C@H]1CC(OC(=O)c1c[nH]c3ccccc13)C2 (some centres undefined)" class="0 (no)"
molecule=C[C@H]1O[C@@H](n2cc(F)c(=O)[nH]c2=O)[C@H](O)[C@H]1O class="0 (no)"
molecule="CC1=C(C(=O)Nc2cc3cn[nH]c3cc2F)C(c2ccc(C(F)(F)F)cc2)CC(=O)N1 (centres undefined)" class="0 (no)"
molecule="C=C[C@@H]1CN2CCC1C[C@@H]2C(O)c1ccnc2ccc(OC)cc12 (some centres undefined)" class="0 (no)"
molecule=Nc1ccn([C@@H]2O[C@H](CO)[C@@H](O)[C@H]2O)c(=O)n1 class="0 (no)"
molecule=O=C(Nc1ccccc1)Nc1ccc(-c2ccc(C(=O)[C@H]3CCC[C@H]3C(=O)O)cc2)cc1 class="0 (no)"
molecule=CCOC(=O)[C@H]1O[C@H]1C(=O)N[C@@H](CC(C)C)C(=O)NCCC(C)C class="0 (no)"
molecule=NS(=O)(=O)c1cc(Cl)c(Cl)c(S(N)(=O)=O)c1 class="0 (no)"
molecule="CCCCC(C=O)NC(=O)C(CC(C)C)NC(=O)OCc1ccccc1 (centres undefined)" class="0 (no)"
molecule=CCN1C[C@H](C)n2c(c(O)c3c(=O)n(Cc4ccc(F)c(Cl)c4)nc(C(=O)NC)c32)C1=O class="0 (no)"
molecule="CC(NCCc1ccc(O)cc1)C(O)c1ccc(O)cc1 (centres undefined)" class="0 (no)"
molecule=O=C(O)c1nc(=O)[nH]c(=O)[nH]1 class="0 (no)"
molecule=CCCCn1c(=O)n(Cc2ccccc2F)c(=O)c2[nH]c(Cc3ccc(NC(C)=O)cc3)nc21 class="0 (no)"
molecule="CN1CCN2c3ncccc3Cc3ccccc3C2C1 (centres undefined)" class="0 (no)"
molecule=CCNC(=O)Nc1ccc(Oc2ncnc(N)c2C=NOC)cc1Cl class="0 (no)"
molecule=CC(C)C[C@@H](N)[C@H](O)C(=O)N[C@H](C(=O)N[C@H](C(=O)N[C@@H](CC(=O)O)C(=O)O)C(C)C)C(C)C class="0 (no)"
molecule=CN(C)CCOc1ccc(-c2nc(-c3ccc4c(c3)CCC4=NO)c(-c3ccncc3)[nH]2)cc1 class="1 (yes)"
molecule=CO[C@H]1/C=C\O[C@@]2(C)Oc3c(C)c(O)c4c(O)c(c5c(nc6cc(C)ccn65)c4c3C2=O)NC(=O)C(C)=CC=C[C@H](C)[C@H](O)[C@@H](C)[C@@H](O)[C@@H](C)[C@H](OC(C)=O)[C@H]1C class="0 (no)"
molecule=CCCCc1ccc(NS(=O)(=O)c2ccc(C)c(C(=O)N3CCN(c4cccc(C)c4C)CC3)c2)cc1 class="0 (no)"
molecule="CNC1CCC(N(Cc2cccc(-c3ccncc3)c2)C(=O)c2sc3ccccc3c2Cl)CC1 (centres undefined)" class="1 (yes)"
molecule=O=C1Nc2ccc(I)cc2C1=Cc1cc(Br)c(O)c(Br)c1 class="0 (no)"
molecule=NC[C@H]1O[C@H](O[C@@H]2[C@@H](O)[C@@H](O[C@H]3O[C@H](CO)[C@@H](O)[C@H](N)[C@@H]3O)[C@H](N)C[C@@H]2N)[C@H](O)[C@@H](O)[C@H]1O class="0 (no)"

Every entry's value here was drawn from PubChem BioAssay (NCATS).
